These entries and their values trace back to PubChem BioAssay (NCI).

Method: NCI Yeast Anticancer Drug Screen. Data for the sgs1 mgt1 strain (AID 161);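 further: 0% = growth of cultures given vehicle only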
Condition Set: S. cerevisiae sgs1 mgt1 strain, at 50.0 µM, stronger effect = higher value
The panel holds about 79,000 compounds, 15% with a hit somewhere; the sample as a whole holds those more often.
Quantity Measured: growth inhibition (%)
One number for each entry, in %.

Answered cases to consult:
COc1cccc([B-]23OCC[N+]2(CNC(=O)c2ccccc2O)CCO3)c1 (stereo unspecified) :: 12.9
COc1cc2c(c(OC)c1OC)-c1ccc(OC)c(=O)cc1C(NC(=O)COc1ccccc1)CC2 (stereo unspecified) :: 15.2
CC12CCC(O)CC1=CCC1C2CCC2(C)C1CCC21SCCS1 (stereo unspecified) :: 20.2
COc1ccc(N=Cc2cc(Cl)cc(Cl)c2OC(=O)c2ccccc2)cc1 :: 8.55
O=S(=O)(O)n1ccnc1 (tested in a mixture with another compound) :: 1.3

Respectfully, I request growth inhibition for each entry included below.
1. O=C1C(/C=N\C(=S)NCc2ccccc2)=C(O)c2ccccc21
2. Cc1cc(Sc2ccccc2)nc2ccccc12
3. CC1(C)N=C(N)N=C(N)N1c1ccc(C(=O)c2ccccc2)cc1
4. COc1ccc(CC(=O)NC(N)=O)cc1
5. CCOC(=O)c1cc(CC)[nH]c(=O)c1C#N

1. -27.1
2. 41.6
3. -3.3
4. -12.3
5. -11.3

Record summary for "COc1ccc(NC(=O)Nc2ccc(Br)cc2)cc1" : reported growth inhibition = -0.15

====

Exercise: state measured growth inhibition for each of the compounds provided.
Method: NCI Yeast Anticancer Drug Screen. Data for the mec2-1 strain (AID 157)
Condition Set: S. cerevisiae mec2-1 strain, at 50.0 µM, stronger effect = higher value
The panel holds about 79,000 compounds, 15% with a hit somewhere; the sample as a whole holds those more often.
One number for each entry, in %.

Answered cases to consult:
COC(=O)C1=C(C(=O)OC)C2C=CC1C1C(Cl)=C(Cl)C21 (centres undefined) :: -0.95
CCOC(=O)c1ccc(N=Cc2cccs2)cc1 :: 28.4
Ic1ccc(N=Nc2ccccc2)cc1 :: -11.9
C=CCc1ccc(OC(=O)CC)c(OC)c1 :: -22.4

Respectfully, I request growth inhibition for each entry included below.
1. CN(C)C(=O)/N=C1\SC(=Nc2ccccc2)C(=Nc2ccccc2)N1c1ccc([N+](=O)[O-])cc1
2. CC(C)(O)C(c1ccccc1)S(=O)(=O)O (centres undefined)
3. CNC(=O)OCCCCCCCCCCOC(=O)NC
4. C=CCNC(=S)NNC(=O)c1ccncc1
5. N#Cc1ccccc1NC(=O)C(=O)C(C(=O)c1ccncc1)C1OC(=O)c2ccccc21 (centres undefined)
6. O=C(O)c1ccc(NC(=S)NC(=O)c2cccc([N+](=O)[O-])c2)cc1
7. COC(=O)c1nc2c(n(C)/c1=N/C(=O)Nc1ccccc1)CCCC2

5.5
-18.6
-0.1
-10.3
-17.1
16
-2.9

Respectfully, I request growth inhibition for each entry included below.
1. COc1ccc(N2N=NCC2c2ccccc2[N+](=O)[O-])cc1 (centres undefined)
2. COc1c(C)c2c(c(C)c1Cl)Oc1c(C=O)c(O)c(Cl)c(C)c1C(=O)O2
3. Cc1nn2c(C(=O)O)nnc2s1
4. C/C=C\C(=O)OCC(C)COC(=O)/C=C/C (centres undefined)

-11.9
25.4
5.25
15.9

====

Method: NCI Yeast Anticancer Drug Screen. Data for the mlh1 rad18 strain (AID 175)
Condition Set: S. cerevisiae mlh1 rad18 strain growth inhibition; at 50.0 µM; stronger effect = higher value
The panel holds about 79,000 compounds, 15% with a hit somewhere; the sample as a whole holds those more often.
Decide using growth inhibition: a value greater than or equal to 20% is 1 (yes), a smaller one is 0 (no).

Assess whether reported growth inhibition for NC(=O)CNCC1Cc2ccccc21 (configuration not stated) sits at 20% or higher.
0 (no)

Assess whether reported growth inhibition for "CCOC(CN(C)C(=S)Nc1cccc2ccccc12)OCC" sits at 20% or higher.
0 (no)

Assess whether reported growth inhibition for "CC(=NC1CCCCC1)c1ccccc1O" sits at 20% or higher.
0 (no)

====

Exercise: state measured growth inhibition for each of the compounds provided.
Method: NCI Yeast Anticancer Drug Screen. Data for the mlh1 rad18 strain (AID 175)
Condition Set: S. cerevisiae mlh1 rad18 strain growth inhibition; at 50.0 µM; stronger effect = higher value
The panel holds about 79,000 compounds, 15% with a hit somewhere; the sample as a whole holds those more often.
Numbers only, in %.

O=C(CC(C(=O)c1cccs1)c1ccsc1)c1ccsc1 (stereo unspecified) :: -25.6

Respectfully, I request growth inhibition for each entry included below.
1. O=C1NN2CCN=C2c2ccccc21
2. CCOC(=O)c1[nH]c(-c2ccc(OC)cc2)c(C(=O)OCC)c1-c1ccccc1

1: -16.4; 2: 24.1

Respectfully, I request growth inhibition for each entry included below.
1. CCOC(=O)c1sc(N)nc1O
2. CCC(=O)N1C(=O)C(C)C23c4ccccc4C(=O)N2CCCN13 (stereo unspecified)
3. Cn1nc(C(F)(F)C(F)(F)C(F)(F)F)nc1C(F)(F)C(F)(F)C(F)(F)F
4. Cc1nn2c(C(=O)O)nnc2s1
5. COC(=O)CC(C)N(c1cccc(Cl)c1)S(=O)(=O)c1ccc(C)cc1 (stereo unspecified)

1. -8.8
2. 15.8
3. 10.6
4. -13.8
5. 32.5

====

Method: NCI Yeast Anticancer Drug Screen. Data for the mlh1 rad18 strain (AID 175)
Condition Set: S. cerevisiae mlh1 rad18 strain growth inhibition; at 50.0 µM; stronger effect = higher value
Experimental: Growth inhibition of yeast strains with defined genetic alterations is measured as a screen for potential anti-cancer activity. Selected strains with alterations in DNA damage repair or cell cycle control were exposed to compounds and growth inhibition was measured relative to vehicle treated controls. The strain used in this assay is mlh1 rad18
The panel holds about 79,000 compounds, 15% with a hit somewhere; the sample as a whole holds those more often.
Exercise: state measured growth inhibition for each of the compounds provided.
Numbers only, in %.

CC(=O)NNc1nc(C)c(C(/C=C/c2ccc(NC(C)=O)cc2)=N/NS(=O)(=O)c2ccc(C)cc2)s1 :: -21.4

Respectfully, I request growth inhibition for each entry included below.
1. C=CCCCCCCCCC(=O)OC
2. CCC(CC)C(=O)NCC(=O)NO
3. Cc1cc(=O)oc2ccccc12
4. CCOC(=O)C(Cc1ccc([N+](=O)[O-])cc1)NC(=O)CC1c2ccccc2-c2ccccc21 (centres undefined)
5. CC1(C)C=C(C(Br)c2ccc(Cl)cc2)C(=O)c2ccccc21 (centres undefined)
6. O=C(O)CCCc1ccc2c(c1)CC1(C2)Cc2cc3c(cc2C1)CCCC3

1: -31.4; 2: 9.15; 3: 1.55; 4: -8.95; 5: 98.2; 6: 7.4

Respectfully, I request growth inhibition for each entry included below.
1. OCC1OC(c2scc3c(=S)nc[nH]c23)C(O)C1O (centres undefined)
2. CC(C)(C)c1ccc(OCCCl)c(Cl)c1
3. O=C(/C(=C/c1ccccc1)N1CCOCC1)c1cccc2ccccc12
4. O=C(NC1CCCCC1)C(c1ccccc1)c1ccccc1
5. CC(=O)N(C)CCCCCCN(C)C(C)=O

1. -11.2
2. 6.3
3. 19.9
4. -10.9
5. 9.35

Respectfully, I request growth inhibition for each entry included below.
1. CCN(CC)C(=O)C(C)n1cc(C)c(=O)[nH]c1=O (centres undefined)
2. CC1(C)C2CC(c3ccccc3)C1/C(=C/O)C2=O (centres undefined)
3. Cc1ccc(Nc2nc(=O)[nH]c(=O)[nH]2)cc1N
4. COCCOC(=O)CCC(C)=O
5. CC(=O)NCCNC(=O)c1ccc(C)c(OCc2ccccc2)c1[N+](=O)[O-]

1. -3.85
2. -2.9
3. -54.5
4. 10.7
5. 4.45

Respectfully, I request growth inhibition for each entry included below.
1. O=C1/C(=N\N(C(=O)c2ccccc2)c2ccccc2)c2cccc3cccc1c23
2. Cc1ccc(-c2n[nH]c(CC#N)n2)cc1
3. CCN(CC)CCCC(C)Nc1c2cc(OC)cc(C)c2nc2c(C)c(Cl)ccc12 (centres undefined)
4. CC(=O)OC1CCC2(C)C(CCC3C2CCC2(C)C(c4cccc(=O)o4)CCC32)C1 (centres undefined)
5. N=c1oc2ccc([N+](=O)[O-])cc2cc1C(=O)NCc1ccccc1
6. COc1cc2cc3c4ccc(OC)c(OC)c4cc[n+]3c(C)c2cc1OC (tested in a mixture with another compound)
7. Nc1ccc(F)c(F)c1

35.9
18.7
29.4
2.3
-71.8
98
13.8

====

Method: NCI Yeast Anticancer Drug Screen. Data for the cln2 rad14 strain (AID 165);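 further: 0% = growth equal to vehicle treated cultures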
Condition Set: S. cerevisiae cln2 rad14 strain, at 50.0 µM, stronger effect = higher value
The panel holds about 79,000 compounds, 15% with a hit somewhere; the sample as a whole holds those more often.
Exercise: state measured growth inhibition for each of the compounds provided.
Answers are plain numbers, in %.

Answered cases to consult:
CCc1cc(-c2cc(CC)on2)no1 :: -1.15
NC(N)=NS(=O)(=O)c1ccc(NC(=O)c2ccc(Cl)c3c(Nc4ccc(S(=O)(=O)N=C(N)N)cc4)c4ccccc4nc23)cc1 :: 34.5
CC1=C(C)C(=O)c2c(OC(=O)c3ccccc3)ccc(OC(=O)c3ccccc3)c2C1=O :: -18.7
CCOC(=O)C(Cc1ccc(O)cc1)NC(=O)c1cc2c(cn1)[nH]c1ccccc12 (configuration not stated) :: -19.8
CC(C)OC(=O)Oc1ccccc1Cl :: -6.9
Nc1ncnc2c1nc(-c1ccccc1)n2C1OC(CO)C(O)C1O (configuration not stated) :: 9.75
N=C1C(=O)C(=N)c2ccccc2-c2ccccc21 :: -0.05
CC1CCC(C(=O)O)CC1 (configuration not stated) :: 21.8

Respectfully, I request growth inhibition for each entry included below.
1. COc1ccc(-c2csc(N)n2)cc1OC
2. COc1cccc(/C=C2\C(=O)N(C(=O)Cc3ccccc3)N=C2C)c1
3. CCCC[P+](CCCC)(CCCC)c1ccccc1
4. COC(=O)c1ccccc1OC(C)=O

1. -66.7
2. -0.45
3. -32.1
4. 13.8
